# experiment-description: Inhibition of beta-hexosaminidase A at pH 4.5 by competitive binding assay
recorded-endpoint: Ki

Query string: What value of Ki has been reported for the following compound? "CCc1nc(N)nc(N)c1-c1ccc(Cl)cc1"
Result string: 13 µM

---

# experiment-description: Inhibition of beta-hexosaminidase A at pH 6.5 by competitive binding assay
recorded-endpoint: IC50 (µM)
Report the value in µM with no unit label.

Query string: Can you look up the measured IC50 of "CCc1nc(N)nc(N)c1-c1ccc(Cl)cc1" for me?
Result string: 2
